Biological target: T1, human VEGF (human, UniProt P15692 207-395, biotinylated (site not stated))
T1 construct: Biotinylated human VEGF generated internally; also called hVEGF; hVEGF-biotin
T1 sequence: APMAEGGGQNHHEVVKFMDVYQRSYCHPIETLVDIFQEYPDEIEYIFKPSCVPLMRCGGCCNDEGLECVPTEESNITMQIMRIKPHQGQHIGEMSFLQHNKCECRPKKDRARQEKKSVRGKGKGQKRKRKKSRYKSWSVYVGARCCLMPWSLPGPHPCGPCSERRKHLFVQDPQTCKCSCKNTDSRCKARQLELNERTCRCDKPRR
Test: Biacore SPR, hVEGF
RECORDED ENDPOINT: log10 koff (log10 of the value in s⁻¹)

{"BINDER": "NVS4 heavy chain variant D31S (Fab, V domains shown, CDR variant of NVS4) VH: EVQLVESGGGLVQPGGSLRLSCTASGFSLTSYYYMTWVRQAPGKGLEWVGFIDPDDDPYYATWAKGRFTISRDNSKNTLYLQMNSLRAEDTAVYYCAGGDHNSGWGLDIWGQGTLVTVSS VL: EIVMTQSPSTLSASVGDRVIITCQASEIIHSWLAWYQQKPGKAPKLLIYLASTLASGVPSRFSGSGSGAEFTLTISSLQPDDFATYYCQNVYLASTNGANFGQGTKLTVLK", "log10 koff": -4.33}
{"BINDER": "NVS4 heavy chain variant D100N + H101K (Fab, V domains shown, CDR variant of NVS4) VH: EVQLVESGGGLVQPGGSLRLSCTASGFSLTDYYYMTWVRQAPGKGLEWVGFIDPDDDPYYATWAKGRFTISRDNSKNTLYLQMNSLRAEDTAVYYCAGGNKNSGWGLDIWGQGTLVTVSS VL: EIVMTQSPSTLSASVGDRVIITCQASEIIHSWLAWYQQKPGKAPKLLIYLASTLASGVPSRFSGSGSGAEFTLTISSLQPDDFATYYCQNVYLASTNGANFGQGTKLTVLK", "log10 koff": -3.44}
{"BINDER": "NVS4 light chain variant T96R (Fab, V domains shown, CDR variant of NVS4) VH: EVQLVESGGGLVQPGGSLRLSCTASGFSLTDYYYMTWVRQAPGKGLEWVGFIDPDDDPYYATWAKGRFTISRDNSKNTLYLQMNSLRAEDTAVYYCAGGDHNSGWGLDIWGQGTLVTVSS VL: EIVMTQSPSTLSASVGDRVIITCQASEIIHSWLAWYQQKPGKAPKLLIYLASTLASGVPSRFSGSGSGAEFTLTISSLQPDDFATYYCQNVYLASRNGANFGQGTKLTVLK", "log10 koff": -4.86}
{"BINDER": "HC4T (Fab, V domains shown, Tagged heavy chain CDR variant HC4 with NVS4 light chain) VH: EVQLVESGGGLVQPGGSLRLSCTASGFSLTNYYYMTWVRQAPGKGLEWVGFIDPQNDPYYATWAKGRFTISRDNSKNTLYLQMNSLRAEDTAVYYCAGGNHNSGWGLNIWGQGTLVTVSS VL: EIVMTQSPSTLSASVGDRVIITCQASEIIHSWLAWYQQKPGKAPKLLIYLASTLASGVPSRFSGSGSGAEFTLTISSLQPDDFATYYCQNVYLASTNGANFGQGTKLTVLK", "log10 koff": -3.04}
{"BINDER": "HC8T (Fab, V domains shown, Tagged heavy chain CDR variant HC8 with NVS4 light chain) VH: EVQLVESGGGLVQPGGSLRLSCTASGFSLTKYYYMTWVRQAPGKGLEWVGFIKPDKKPKYATWAKGRFTISRDNSKNTLYLQMNSLRAEDTAVYYCAGGDHNSGWGLDIWGQGTLVTVSS VL: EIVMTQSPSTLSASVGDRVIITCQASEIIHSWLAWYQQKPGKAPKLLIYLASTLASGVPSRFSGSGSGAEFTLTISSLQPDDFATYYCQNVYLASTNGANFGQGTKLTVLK", "log10 koff": -2.59}
{"BINDER": "NVS4 light chain variant Y92F (Fab, V domains shown, CDR variant of NVS4) VH: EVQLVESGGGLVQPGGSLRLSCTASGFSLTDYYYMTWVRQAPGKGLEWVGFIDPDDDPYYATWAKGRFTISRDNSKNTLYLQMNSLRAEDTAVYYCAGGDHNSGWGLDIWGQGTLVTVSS VL: EIVMTQSPSTLSASVGDRVIITCQASEIIHSWLAWYQQKPGKAPKLLIYLASTLASGVPSRFSGSGSGAEFTLTISSLQPDDFATYYCQNVFLASTNGANFGQGTKLTVLK", "log10 koff": -4.11}
{"BINDER": "NVS4 heavy chain variant D57N (Fab, V domains shown, CDR variant of NVS4) VH: EVQLVESGGGLVQPGGSLRLSCTASGFSLTDYYYMTWVRQAPGKGLEWVGFIDPDDNPYYATWAKGRFTISRDNSKNTLYLQMNSLRAEDTAVYYCAGGDHNSGWGLDIWGQGTLVTVSS VL: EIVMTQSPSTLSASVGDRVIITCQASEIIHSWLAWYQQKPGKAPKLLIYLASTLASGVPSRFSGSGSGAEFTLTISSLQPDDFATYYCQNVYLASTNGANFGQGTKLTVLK", "log10 koff": -2.85}
{"BINDER": "NVS4 heavy chain variant D55N (Fab, V domains shown, CDR variant of NVS4) VH: EVQLVESGGGLVQPGGSLRLSCTASGFSLTDYYYMTWVRQAPGKGLEWVGFIDPNDDPYYATWAKGRFTISRDNSKNTLYLQMNSLRAEDTAVYYCAGGDHNSGWGLDIWGQGTLVTVSS VL: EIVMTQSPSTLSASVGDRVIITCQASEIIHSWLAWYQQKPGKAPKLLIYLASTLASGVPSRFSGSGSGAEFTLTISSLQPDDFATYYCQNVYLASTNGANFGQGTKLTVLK", "log10 koff": -3.18}
{"BINDER": "HC1T (Fab, V domains shown, Tagged heavy chain CDR variant HC1 with NVS4 light chain) VH: EVQLVESGGGLVQPGGSLRLSCTASGFSLTSYYYMTWVRQAPGKGLEWVGFIDPQNNPYYATWAKGRFTISRDNSKNTLYLQMNSLRAEDTAVYYCAGGSHNSGWGLNIWGQGTLVTVSS VL: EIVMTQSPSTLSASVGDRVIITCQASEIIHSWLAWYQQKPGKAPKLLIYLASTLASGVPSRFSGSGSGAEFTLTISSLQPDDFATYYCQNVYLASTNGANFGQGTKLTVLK", "log10 koff": -2.07}
{"BINDER": "NVS4 heavy chain variant D56N (Fab, V domains shown, CDR variant of NVS4) VH: EVQLVESGGGLVQPGGSLRLSCTASGFSLTDYYYMTWVRQAPGKGLEWVGFIDPDNDPYYATWAKGRFTISRDNSKNTLYLQMNSLRAEDTAVYYCAGGDHNSGWGLDIWGQGTLVTVSS VL: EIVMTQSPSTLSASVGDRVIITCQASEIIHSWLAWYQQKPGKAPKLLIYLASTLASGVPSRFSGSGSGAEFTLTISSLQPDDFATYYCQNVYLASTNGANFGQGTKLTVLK", "log10 koff": -4.32}
